Could you please report measured specific huCB1 binding (CB1 ND/Empty ND ratio) for the items listed next?
- target: T1, His-tagged huCB1-ND (human CB1 in nanodisc) (human)
- T1 construct: CB1 construct of Cell 167(3) (2016) 750-762 expressed in Sf9 cells; POPC:MSP1D1:CB1 480:8:1; also called CB1-nanodisc; huCB1-Nanodisc; not shown: histidine purification tag
- T1 sequence (P21554 99-414): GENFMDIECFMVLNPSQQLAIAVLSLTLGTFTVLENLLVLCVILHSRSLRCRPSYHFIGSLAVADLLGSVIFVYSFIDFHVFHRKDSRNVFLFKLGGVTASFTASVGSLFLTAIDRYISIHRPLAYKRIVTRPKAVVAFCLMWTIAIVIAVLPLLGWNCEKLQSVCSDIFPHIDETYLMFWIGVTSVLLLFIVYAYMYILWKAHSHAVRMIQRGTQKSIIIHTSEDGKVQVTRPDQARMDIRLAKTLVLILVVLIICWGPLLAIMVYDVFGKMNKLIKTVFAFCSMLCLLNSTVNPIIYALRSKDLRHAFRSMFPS
- measurementDescription: flow cytometry, yeast-displayed IgG, huCB1-ND over empty-ND
Param answer (str): number followed by unit.

Q) Recorded specific huCB1 binding (CB1 ND/Empty ND ratio) of LIBC523862-1 (antibody, V domains shown) VH: QVQLQESGPGLVKPSQTLSLTCTVSGGSIRRGGDYWSWIRQHPGKGLEWIGHIYQTGSTAYNPSLKGRATISVNTYKNQFSLKLSSVTAADTAVYYCARDYDILTGYSYYYYGMDVWGQGTTVTVSS VL: DIVMTQSPLSLPVTPGEPASISCRSSQSLLHSTGANYVDWYLQKPGQSPQLLIYLGSNRASGVPDRFSGSGSGTDFTLKISRVEAEDVGVYYCRQAIALPRTFGQGTKVEIKR , please.
A) 13.6 ratio

Q) Recorded specific huCB1 binding (CB1 ND/Empty ND ratio) of LIBC523603-1 (antibody, V domains shown) VH: QVQLQESGPGLVKPSQTLSLTCTVSGGSIRRGGDYWAWIRQHPGKGLEWIGHVYQSGQTAYNPNFENRATISVNTYKNQFSLKLSSVTAADTAVYYCARDYDAVSGYSYYYYGMDVWGQGTTVTVSS VL: DIVMTQSPLSLPVTPGEPASISCRSSQSLLSSYGNNYVDWYLQKPGQSPQLLIYQGSNRASGVPDRFSGSGSGTDFTLKISRVEAEDVGVYYCRQAVGLPRTFGQGTKVEIKR , please.
A) 19.4 ratio

Q) Recorded specific huCB1 binding (CB1 ND/Empty ND ratio) of LIBC523670-1 (antibody, V domains shown, also called LIBC523670-1 + VK2 germline fix) VH: QVQLQESGPGLVKPSQTLSLTCTVSGGSIRRGGDYWAWIRQHPGKGLEWIGHVYQTGQTAYNPNLESRATISVNTYKNQFSLKLSSVTAADTAVYYCARNYDVLSGYSYYYYGMDVWGQGTTVTVSS VL: DIVMTQSPLSLPVTPGEPASISCRSSQSLLTSYGANYLDWYLQKPGQSPQLLIYQGSNRASGVPDRFSGSGSGTDFTLKISRVEAEDVGVYYCMQALQIPRTFGQGTKVEIKR , please.
A) 23 ratio

Q) Recorded specific huCB1 binding (CB1 ND/Empty ND ratio) of LIBC523969-1 (antibody, V domains shown) VH: QVQLQESGPGLVKPSQTLSLTCTVSGGSIRRGGDYWSWIRQHPGKGLEWIGHIYQTGQTKYNPNLKGRATISVNTYKNQFSLKLSSVTAADTAVYYCARDYDILTGYSYYYYGMDVWGQGTTVTVSS VL: DIVMTQSPLSLPVTPGEPASISCRSSQSLLSSTGANYLDWYLQKPGQSPQLLIYQGSNRASGVPDRFSGSGSGTDFTLKISRVEAEDVGVYYCRQAVGLPRTFGQGTKVEIKR , please.
A) 12.8 ratio

Q) Recorded specific huCB1 binding (CB1 ND/Empty ND ratio) of LIBC523844-1 (antibody, V domains shown) VH: QVQLQESGPGLVKPSQTLSLTCTVSGGSIRRGGDYWSWIRQHPGKGLEWIGHVYYTGSTKYNPSFKDRATISVNTYKNQFSLKLSSVTAADTAVYYCARDYDILTGYSYYYYGMDVWGQGTTVTVSS VL: DIVMTQSPLSLPVTPGEPASISCRSSQSLLSSSGANYVDWYLQKPGQSPQLLIYQGSNRASGVPDRFSGSGSGTDFTLKISRVEAEDVGVYYCRQARALPRTFGQGTKVEIKR , please.
A) 8.58 ratio

Q) Recorded specific huCB1 binding (CB1 ND/Empty ND ratio) of LIBC523868-1 (antibody, V domains shown) VH: QVQLQESGPGLVKPSQTLSLTCTVSGGSIRRGGDYWSWIRQHPGKGLEWIGHVYYEGSTAYNPSFEDRATISVNTYKNQFSLKLSSVTAADTAVYYCARDYDILTGYSYYYYGMDVWGQGTTVTVSS VL: DIVMTQSPLSLPVTPGEPASISCRSSQSLLTSYGINYVDWYLQKPGQSPQLLIYLGSNRASGVPDRFSGSGSGTDFTLKISRVEAEDVGVYYCMQARQIPRTFGQGTKVEIKR , please.
A) 13.3 ratio

Q) Recorded specific huCB1 binding (CB1 ND/Empty ND ratio) of LIBC523815-1 (antibody, V domains shown) VH: QVQLQESGPGLVKPSQTLSLTCTVSGGSIRRGGDYWSWIRQHPGKGLEWIGHIYQSGQTKYNPSLKDRATISVNTYKNQFSLKLSSVTAADTAVYYCARDYDILTGYSYYYYGMDVWGQGTTVTVSS VL: DIVMTQSPLSLPVTPGEPASISCRSSQSLLTSSGANYVDWYLQKPGQSPQLLIYLGSNRASGVPDRFSGSGSGTDFTLKISRVEAEDVGVYYCRQAREQPRTFGQGTKVEIKR , please.
A) 14.8 ratio

Q) Recorded specific huCB1 binding (CB1 ND/Empty ND ratio) of LIBC523813-1 (antibody, V domains shown, also called LIBC523813-1 + VK2 germline fix) VH: QVQLQESGPGLVKPSQTLSLTCTVSGGSIRRGGDYWSWIRQHPGKGLEWIGHVYYTGQTAYNPKFKDRATISVKTYKNQFSLKLSSVTAADTAVYYCARDYDILTGYSYYYYGMDVWGQGTTVTVSS VL: DIVMTQSPLSLPVTPGEPASISCRSSQSLLSSSGANYVDWYLQKPGQSPQLLIYLGSNRASGVPDRFSGSGSGTDFTLKISRVEAEDVGVYYCMQARGIPRTFGQGTKVEIKR , please.
A) 5.79 ratio

Q) Recorded specific huCB1 binding (CB1 ND/Empty ND ratio) of LIBC523661-1 (antibody, IgG1, V domains shown) VH: QVQLQESGPGLVKPSQTLSLTCTVSGGSIRRGGDYWSWIRQHPGKGLEWIGHIYYEGSTKYNPSFKGRATISVNTYKNQFSLKLSSVTAADTAVYYCARDYDPVTGHSYYYYGMDVWGQGTTVTVSS VL: DIVMTQSPLSLPVTPGEPASISCRSSQSLLTSSGYNYVDWYLQKPGQSPQLLIYQGSNRASGVPDRFSGSGSGTDFTLKISRVEAEDVGVYYCRQARAIPRTFGQGTKVEIKR , please.
A) 9.32 ratio

Q) Recorded specific huCB1 binding (CB1 ND/Empty ND ratio) of LIBC523857-1 (antibody, V domains shown) VH: QVQLQESGPGLVKPSQTLSLTCTVSGGSIRRGGDYWSWIRQHPGKGLEWIGHIYQTGQTAYNPRLEGRATISVNTYKNQFSLKLSSVTAADTAVYYCARDYDILTGYSYYYYGMDVWGQGTTVTVSS VL: DIVMTQSPLSLPVTPGEPASISCRSSQSLLSSTGANYLDWYLQKPGQSPQLLIYLGSNRASGVPDRFSGSGSGTDFTLKISRVEAEDVGVYYCRQAVELPRTFGQGTKVEIKR , please.
A) 13.9 ratio

Q) Recorded specific huCB1 binding (CB1 ND/Empty ND ratio) of LIBC523760-1 (antibody, V domains shown) VH: QVQLQESGPGLVKPSQTLSLTCTVSGGSIRRGGDYWSWIRQHPGKGLEWIGHVYQTGSTKYNPKFKGRATISVNTYKNQFSLKLSSVTAADTAVYYCARDYDILTGYSYYYYGMDVWGQGTTVTVSS VL: DIVMTQSPLSLPVTPGEPASISCRSSQSLLTSSGANYVDWYLQKPGQSPQLLIYLGSNRASGVPDRFSGSGSGTDFTLKISRVEAEDVGVYYCRQAVGTPRTFGQGTKVEIKR , please.
A) 7.21 ratio
